molecular target: hMPV A1 F trimer (heated), postfusion hMPV F (human metapneumovirus subgroup A1; …, UniProt H6X1Z1, strain)

| binder | binding result |
| --- | --- |
| MPV454 (antibody, V domains shown) VH: QVQLVESGGGLVKPGGSLRLSCSTSGFVFSSYAMHWVRQAPGKGLEHVSAISSTGDNTHYADSVKGRFTISRDNSRGRLYLQMTSVRPEDAALYYCVKDLYSGRFYYFLDDWGQGTRIIVSS VL: DIQVTQSPSSLSASVGDRVTISCRASQNISNYLNWFQQRPGKAPKLLIYVASTLQSGAPSRFSGSGSGTDFTLTITDLQPEDFATYYCQQSYNTPPITFGQGTRLEIK | binds |
| MPV464 (antibody, V domains shown) VH: QVQLQESGPGLVKPSQTLSLTCTVSGGSVRGGGDYWSWIRRPPGKGLEWIGHIYNSGTTFYNPSLKSRVTISIDTSKNQFSLKLRSVTAADTAVYYCGRVGSRATGLPDWIDPWGQGTLVTVSS VL: SYELTQPPSVSVSPGQTATITCSGTNLGAKYSCWYQQKPGQSPVLVIFQDNKRASGIPARFSASTSGDTATLTISGTQVMDEADYFCQAWDSRTAVFGGGTTLTV | binds |
| MPV486 (antibody, V domains shown) VH: QVQLVESGGHLVQSGGSLRLSCAASGFTFSNYILNWVRQAPGKGLEWISYITGGSSAIYYADSVKGRFTISRDDAKNSLYLQMNNLRAEDTAVYYCARSHGYDSSGYYYYFAMDVWGQGTTVTVSS VL: QSVLTQPPSASGTPGQRVTISCSGSNSNIESNTVNWYQQIPGTAPKLLIYSDNRRPSGVPDRFSGSKSGTSASLAISGLQSEDEADYYCAAWDDSLIGYVFGTGTKVTV | binds |
